All figures here come from PubChem BioAssay.

experiment description: growth effects on S. cerevisiae YJM789 – YJM789 clinical isolate, OD600, 24 h, basal, primary screen (AID 1089);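 also: growth of clinical yeast isolate S. cerevisiae YJM 789 seeded 1000 cells per well; test concentration not given here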
settings: higher = more signal, called active from +8 up or from −8 down
// reported z-score per item
Lab note: jot down the number only; don't add units.

# count of solved cases: 3
Item under review: `O=C(N1CCOCC1)[C@@]1(Cc2ccccc2)COC(c2ccc(OCCCO)cc2)=N1` . Reported z-score?
-0.731

Item under review: CC(C)C(CO)N1C(=O)[C@@H]2C3C(=O)OCCC/C=C\[C@H]3OC23C=CCN(Cc2ccccc2)C(=O)[C@@H]13 (some centres undefined) . Reported z-score?
-0.43

Item under review: CC1CC/C=C\[C@H]2OC34C=CCN(Cn5nnc6ccccc65)C(=O)[C@H]3N(CCCCCCO)C(=O)[C@@H]4C2C(=O)O1 (some centres undefined) . Reported z-score?
0.28

Could you now consider this next molecule?
Item under review: `O=C1N(CCS(=O)(=O)c2ccccc2)c2ccccc2C[C@]12N=C(c1ccc(OCCCO)cc1)O[C@@H]2c1ccccc1` . Reported z-score?
2.51
